- Tested on: galium
- Test summary: Test C pre-/postemergence herbicide test
- Format: in vivo, Galium aparine
- Settings: Preemergence, 250 g ai/ha
Provide the recorded Plant response rating (scale of 0 to 100), Galium for the entries that follow.
Give bare numbers.

Look over these answered cases.
O=C1NCC(c2cccc(Br)c2)C1C(=O)Nc1cccc(F)c1F (centres unmarked) [Compound 309] :: 85
O=C1NCC(c2cccc(Br)c2)C1C(=O)Nc1ccccc1F (centres unmarked) [Compound 307] :: 85
O=C1NCC(c2cc(F)cc(F)c2)C1C(=O)Nc1ccc(F)cc1F (racemic) [Compound 278] :: 5
O=C1NCC(c2cccc(Cl)c2)C1C(=O)Nc1cccc(F)c1F (racemic) [Compound 275] :: 85

Please give Plant response rating (scale of 0 to 100), Galium, item by item, for the list that follows.
1. O=C1NCC(c2cccc(OC(F)F)c2)C1C(=O)Nc1cccc(F)c1F (centres unmarked) [Compound 324]
2. O=C1NCC(c2ccc(F)cc2)C1C(=O)Nc1cccc(F)c1F (racemic) [Compound 119]
3. O=C1NCC(c2cccc(C(F)(F)F)c2)C1C(=O)Nc1ccccc1Cl (centres unmarked) [Compound 312]
4. O=C1NCC(c2cccc(C(F)F)c2)C1C(=O)Nc1cccc(F)c1F (racemic) [Compound 211]
5. O=C1NCC(c2cccc(C(F)(F)F)c2)C1C(=O)Nc1cccc(Cl)c1F (centres unmarked) [Compound 316]

Result:
1. 85
2. 90
3. 80
4. 100
5. 90

Please give Plant response rating (scale of 0 to 100), Galium, item by item, for the list that follows.
1. O=C1NCC(c2ccccc2)C1C(=O)Nc1ccccc1F (racemic) [Compound 81]
2. O=C1NCC(c2ccc(F)c(C(F)(F)F)c2)C1C(=O)Nc1ccccc1C(F)(F)F (racemic) [Compound 78]

Result:
[0, 85]

----------
- Tested on: corn
- Test summary: Test A pre-/postemergence herbicide test
- Format: in vivo, Zea mays
- Settings: preemergence, 500 g ai/ha; 0 to 100 scale
Provide the recorded Plant response rating, Corn for the entries that follow.
Answers are plain numbers.

Look over these answered cases.
O=C1NCC(c2ccc(F)c(C(F)(F)F)c2)C1C(=O)Nc1ccccc1F (racemic) [Compound 76] :: 40
O=C1NCC(c2ccccc2)C1C(=O)Nc1cccc(F)c1F (stereo not shown) [Compound 65] :: 0
O=C1NCC(c2ccc(F)c(C(F)(F)F)c2)C1C(=O)Nc1ccccc1C(F)(F)F (racemic) [Compound 78] :: 0

Please give Plant response rating, Corn, item by item, for the list that follows.
1. NC1=NCC(c2ccc(F)c(F)c2)C1C(=O)Nc1ccccc1F (stereo not shown) [Compound 95]
2. O=C1NCC(c2cccc(Br)c2)C1C(=O)Nc1ccccc1F (stereo not shown) [Compound 66]
3. COc1cccc(NC(=O)C2C(=O)NCC2c2ccc(F)c(F)c2)n1 (stereo not shown) [Compound 58]
4. O=C1NCC(c2ccc(F)c(F)c2)C1C(=O)Nc1ccccc1Br (stereo not shown) [Compound 55]
5. O=C1NCC(c2ccc(F)c(F)c2)C1C(=O)Nc1cccc(F)c1C(F)(F)F (stereo not shown) [Compound 67]
6. CC(C)(C)OC(=O)Nc1cccc(C2CNC(=O)C2C(=O)Nc2cccc(F)c2F)c1 (stereo not shown) [Compound 70]

Result:
1: 0; 2: 20; 3: 0; 4: 0; 5: 0; 6: 0

Request: So what Plant response rating, Corn did O=C1NCC(c2cccc(Br)c2)C1C(=O)Nc1cccc(F)c1F (stereo not shown) [Compound 64] get with corn?
Result: 20

----------
- Tested on: barnyardgrass
- Test summary: Test A pre-/postemergence herbicide test
- Type: in vivo, Echinochloa crus-galli
- Settings: Preemergence, 125 g ai/ha; 0 to 100 scale where 0 is no effect and 100 is complete control
Plant response rating, Barnyardgrass vs 80: at or above is Satisfied, below is Not satisfied.

The following compounds have reported results that may help.
O=C1NCC(c2cccc(Oc3ccccc3)c2)C1C(=O)Nc1ccccc1F (stereo not drawn) :: Not satisfied
O=C1NCC(c2ccc(OC(F)F)cc2)C1C(=O)Nc1ccccc1F (stereo not drawn) :: Not satisfied
O=C1NCC(c2cccc(-n3cccn3)c2)C1C(=O)Nc1cccc(F)c1F (stereo not drawn) :: Not satisfied
O=C1NCC(c2cc3ccccc3o2)C1C(=O)Nc1ccccc1C(F)(F)F (stereo not drawn) :: Not satisfied
O=C1NCC(c2cccc(OC(F)F)c2)C1C(=O)Nc1cccc(F)c1F (stereo not drawn) :: Satisfied

Request: Decide: Plant response rating, Barnyardgrass of O=C1NCC(c2cccc(C(F)(F)F)c2)C1C(=O)Nc1ccc(F)c(F)c1F (stereo not drawn) >= 80?
Result: Satisfied

Request: Decide: Plant response rating, Barnyardgrass of O=C1NCC(c2cc3ccccc3s2)C1C(=O)Nc1cccc(F)c1F (stereo not drawn) >= 80?
Result: Not satisfied

----------
- System: blackgrass
- Test summary: Test C pre-/postemergence herbicide test
- Type: in vivo, Alopecurus myosuroides
- Settings: Preemergence, 62 g ai/ha; scale 0 to 100
Provide the recorded Plant response rating, Blackgrass for the entries that follow.
Give bare numbers.

O=C1NCC(c2ccc(C(F)(F)F)c(F)c2)C1C(=O)Nc1ccccc1F (racemic) :: 0
O=C1NCC(c2cccc(OC(F)F)c2)C1C(=O)Nc1ccccc1F (centres unmarked) :: 35
O=C1NCC(c2ccc(F)cc2)C1C(=O)Nc1cccc(F)c1F (racemic) :: 70
O=C1NCC(c2ccc(F)cc2)C1C(=O)Nc1ccccc1F (racemic) :: 5

# ---- query molecule ----
Request: Consider the molecule shown here: O=C1NCC(c2cccc(Br)c2)C1C(=O)Nc1cccc(F)c1F (centres unmarked) What is its recorded Plant response rating, Blackgrass?
Result: 5

----------
- System: barnyardgrass
- Test summary: Test A pre-/postemergence herbicide test
- Format: in vivo, Echinochloa crus-galli
- Settings: Postemergence, 125 g ai/ha; 0 to 100 scale, 0 is no effect, 100 is complete control
Provide the recorded Plant response rating, Barnyardgrass for the entries that follow.

Look over these answered cases.
O=C1NCC(c2ccc(C(F)(F)F)nc2)C1C(=O)Nc1ccccc1C(F)(F)F (racemic) [Compound 264] :: 30
O=C1NCC(c2ccc(C(F)(F)F)cc2)C1C(=O)Nc1ccc(F)c(F)c1F (stereo not shown) [Compound 232] :: 80
O=C1NCC(c2ccc(C(F)(F)F)cc2)C1C(=O)Nc1ccccc1Cl (stereo not shown) [Compound 233] :: 70
O=C1NCC(c2ccc(C(F)(F)F)c(F)c2)C1C(=O)Nc1cccc(F)c1F (racemic) [Compound 247] :: 60
O=C1NCC(c2cccc(C(F)(F)F)c2)C1C(=O)Nc1cccc(F)c1F (stereo not shown) [Compound 241] :: 80
O=C1NCC(c2cccc(C(F)(F)F)c2)C1C(=O)Nc1ccc(F)cc1F (racemic) [Compound 207] :: 80
O=C1NCC(c2ccc(OC(F)(F)C(F)F)cc2)C1C(=O)Nc1ccc(F)c(F)c1F (racemic) [Compound 174] :: 0
COc1ccc(C2CNC(=O)C2C(=O)Nc2cccc(F)c2F)cc1C(F)(F)F (stereo not shown) [Compound 234] :: 60

Please give Plant response rating, Barnyardgrass, item by item, for the list that follows.
1. O=C1NCC(c2ccc(OC(F)F)cc2)C1C(=O)Nc1ccccc1Br (stereo not shown) [Compound 225]
2. O=C1NCC(c2ccc3c(c2)OC(F)(F)O3)C1C(=O)Nc1ccccc1F (racemic) [Compound 161]
3. Cc1ccc(C2CNC(=O)C2C(=O)Nc2cccc(F)c2)cc1 (racemic) [Compound 153]
4. O=C1NCC(c2ccc(C(F)(F)F)c(Cl)c2)C1C(=O)Nc1ccccc1F (racemic) [Compound 249]
5. CON(C(=O)C1C(=O)NCC1c1ccc(F)c(F)c1)c1cc([N+](=O)[O-])ccc1F (stereo not shown) [Compound 175]
6. O=C1NCC(c2ccc(-c3ccccc3F)cc2)C1C(=O)Nc1cccc(F)c1F (stereo not shown) [Compound 235]
7. O=C1NCC(c2cc(F)cc(F)c2)C1C(=O)Nc1cccc(F)c1F (racemic) [Compound 279]

Result:
1. 30
2. 90
3. 60
4. 30
5. 0
6. 10
7. 80

Request: Consider the compound shown here: CCc1cccc(C2CNC(=O)C2C(=O)Nc2cccc(F)c2F)c1 (racemic) [Compound 170] What is its recorded Plant response rating, Barnyardgrass?
Result: 90

----------
- Tested on: oilseed rape
- Test summary: Test C pre-/postemergence herbicide test
- Type: in vivo, Brassica napus
- Settings: Postemergence, 31 g ai/ha; scale 0 to 100 (0 no effect, 100 complete control)
Provide the recorded Plant response rating, Oilseed Rape for the entries that follow.
One number for each entry.

Look over these answered cases.
CN1CC(c2ccc(C(F)(F)F)cc2)C(C(=O)Nc2ccccc2F)C1=O (stereo not shown) [Compound 304] :: 0
CN1CC(c2ccc(F)c(F)c2)C(C(=O)Nc2ccccc2F)C1=O (stereo not shown) [Compound 302] :: 0
O=C1NCC(c2cccc(C(F)(F)F)c2)C1C(=O)Nc1ccc(F)cc1F (racemic) [Compound 207] :: 0

Request: Consider the compound shown here: O=C1NCC(c2cccc(Br)c2)C1C(=O)Nc1cccc(F)c1F (stereo not shown) [Compound 309] What is its recorded Plant response rating, Oilseed Rape?
Result: 35
